assay: Clearance in male dog plasma at 0.5 mg/kg, iv administered as single dose measured after 4 hrs; format: ADME, organism-based, Canis lupus familiaris
MEASURED_PROPERTY: clearance (mL/min/kg)

> print(dat)
                                 cpd.smiles  measured.property  reported
1  CC(C)(N)C(=O)N[C@H](COCc1ccccc1)C(=O)N1CCC2=NN(C3CC3)C(=O)[C@]2(Cc2ccccc2)C1          clearance        35

----------
system: CHO; experiment: Agonist activity at human GHSR expressed in CHO cells at maximum concentration incubated for 60 min by FLIPR assay relative to control; format: cell-based
MEASURED_PROPERTY: Activity (%)

> print(dat)
                                 cpd.smiles  uom  reported
1  Cn1nc2c(c1-c1ccccc1)CCN(C(=O)[C@@H](COCc1ccccc1)NC(=O)C(C)(C)N)C2    %      18.2
2  CC(C)(N)C(=O)N[C@H](COCc1ccccc1)C(=O)N1CC(C)(C)C2=NNC(=O)[C@]2(Cc2ccccc2)C1    %      25.4
3  CN1N=C2CCN(C(=O)[C@@H](COCc3ccccc3)NC(=O)C3CCNCC3)C[C@@]2(Cc2ccccc2)C1=O    %      30.5
4  CC(C)(N)C(=O)N[C@H](COCc1ccccc1)C(=O)N1CCC2=NN(C(F)F)C(=O)[C@]2(Cc2ccccc2)C1    %        11

----------
assay: Agonist activity at dog GHSR expressed in CHO cells incubated for 60 min by FLIPR assay; format: cell-based; conditions: 1 h
MEASURED_PROPERTY: EC50 (pM)

> print(dat)
                                   molecule  reported
1  CN1N=C2CCN(C(=O)[C@@H](COCc3ccccc3)NC(=O)C(C)(C)N)C[C@@]2(Cc2ccccc2)C1=O [CAPROMORELIN]       118
2  CC(C)(N)C(=O)N[C@H](COCc1ccccc1)C(=O)N1CCC2=NN(CC3CC3)C(=O)[C@]2(Cc2ccccc2)C1        43
3  CC(C)(N)C(=O)N[C@H](COCc1ccccc1)C(=O)N1CCC2=NN(C(C)(C)C)C(=O)[C@]2(Cc2ccccc2)C1        71
4  CN1N=C2CCN(C(=O)[C@@H](COCc3ccccc3)NC(=O)C3CCNCC3)C[C@@]2(Cc2ccccc2)C1=O    143000
5  CC(C)(N)C(=O)N[C@H](COCc1ccccc1)C(=O)N1CCC2=NN(C3CCCC3)C(=O)[C@]2(Cc2ccccc2)C1       105
6  CC(C)(N)C(=O)N[C@H](COCc1ccccc1)C(=O)N1CCC2=NN(C3CC3)C(=O)[C@]2(Cc2ccccn2)C1        92
7  CC(C)(N)C(=O)N[C@H](COCc1ccccc1)C(=O)N1CCC2=NN(C(F)(F)F)C(=O)[C@]2(Cc2ccccc2)C1        77
8  CC(C)(N)C(=O)N[C@H](COCc1ccccc1)C(=O)N1CCC2=NN(C3CC3)C(=O)[C@]2(Cc2ccccc2)C1        43
9  CC(C)(N)C(=O)N[C@H](COCc1ccccc1)C(=O)N1CCC2=NN(C3CCC3)C(=O)[C@]2(Cc2ccccc2)C1        48

----------
experiment: Metabolic stability in monkey liver microsome assessed as intrinsic clearance at 1 uM measured upto 60 mins in presence of NADPH by LC-MS/MS analysis; format: ADME, Macaca mulatta; conditions: rhesus monkey, liver microsomes, read-out: CLH
MEASURED_PROPERTY: microsomal CLint at 1 µM (µL/min/mg)

> print(dat)
                                 cpd.smiles         measured.property  reported
1  CC(C)(N)C(=O)N[C@H](COCc1ccccc1)C(=O)N1CCC2=NN(C3CC3)C(=O)[C@]2(Cc2ccccc2)C1  microsomal CLint at 1 µM       451

----------
molecular target: Growth hormone secretagogue receptor type 1 (Rattus norvegicus, UniProt O08725); assay: Agonist activity at rat GHSR expressed in CHO cells incubated for 60 min by FLIPR assay
Sequence (O08725 whole entry): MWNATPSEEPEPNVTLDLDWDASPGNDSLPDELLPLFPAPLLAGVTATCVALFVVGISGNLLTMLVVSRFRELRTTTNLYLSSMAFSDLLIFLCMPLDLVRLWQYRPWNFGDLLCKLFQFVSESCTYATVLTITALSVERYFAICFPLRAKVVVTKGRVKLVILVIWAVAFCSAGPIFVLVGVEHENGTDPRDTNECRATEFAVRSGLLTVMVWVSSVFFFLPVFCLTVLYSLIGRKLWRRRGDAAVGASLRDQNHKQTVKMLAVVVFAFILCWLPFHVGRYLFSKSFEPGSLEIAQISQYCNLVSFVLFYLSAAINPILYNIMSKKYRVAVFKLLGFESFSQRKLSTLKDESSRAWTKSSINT
pEC50: −log10 of the molar value.
MEASURED_PROPERTY: pEC50

> print(dat)
                                 cpd.smiles  reported
1  CC(C)(N)C(=O)N[C@H](COCc1ccccc1)C(=O)N1CCC2=NN(C3CCC3)C(=O)[C@]2(Cc2ccccc2)C1     10.85
2  CC(C)(N)C(=O)N[C@H](COCc1ccccc1)C(=O)N1CCC2=NN(C(C)(C)C)C(=O)[C@]2(Cc2ccccc2)C1     10.80
3  CC(C)(N)C(=O)N[C@H](COCc1ccccc1)C(=O)N1CCC2=NN(C(F)(F)F)C(=O)[C@]2(Cc2ccccc2)C1     10.92
4  CC(C)(N)C(=O)N[C@H](COCc1ccccc1)C(=O)N1CCC2=NN(C3CC3)C(=O)[C@]2(Cc2ccccn2)C1     10.68
5  CC(C)(N)C(=O)N[C@H](COCc1ccccc1)C(=O)N1CCC2=NN(CC3CC3)C(=O)[C@]2(Cc2ccccc2)C1     11.05
6  CC(C)(N)C(=O)N[C@H](COCc1ccccc1)C(=O)N1CCC2=NN(C3CC3)C(=O)[C@]2(Cc2ccccc2)C1     11.15
7  CN1N=C2CCN(C(=O)[C@@H](COCc3ccccc3)NC(=O)C(C)(C)N)C[C@@]2(Cc2ccccc2)C1=O     10.77
8  CC(C)(N)C(=O)N[C@H](COCc1ccccc1)C(=O)N1CCC2=NN(C3CCCC3)C(=O)[C@]2(Cc2ccccc2)C1     10.68
9  CN1N=C2CCN(C(=O)[C@@H](COCc3ccccc3)NC(=O)C3CCNCC3)C[C@@]2(Cc2ccccc2)C1=O      7.41

----------
experiment: Metabolic stability in mouse liver microsome assessed as intrinsic clearance at 1 uM measured upto 60 mins in presence of NADPH by LC-MS/MS analysis; type: ADME; conditions: liver microsomes, read-out: CLH
MEASURED_PROPERTY: microsomal CLint at 1 µM (µL/min/mg)

> print(dat)
                                 cpd.smiles  reported
1  CC(C)(N)C(=O)N[C@H](COCc1ccccc1)C(=O)N1CCC2=NN(C3CC3)C(=O)[C@]2(Cc2ccccc2)C1       330

----------
experiment: Elimination half life in male Sprague-Dawley rat at 2 mg/kg, po administered as single dose measured after 4 hrs; assay type: ADME, organism-based; conditions: in vivo, read-out: beta t1/2 (converted)
Property: half-life; scope: individual compounds
MEASURED_PROPERTY: half-life (h)

> print(dat)
                                 cpd.smiles  measured.property  uom  reported
1  CC(C)(N)C(=O)N[C@H](COCc1ccccc1)C(=O)N1CCC2=NN(C3CCC3)C(=O)[C@]2(Cc2ccccc2)C1          half-life    h      1.82
2  CC(C)(N)C(=O)N[C@H](COCc1ccccc1)C(=O)N1CCC2=NN(C(F)(F)F)C(=O)[C@]2(Cc2ccccc2)C1          half-life    h       1.2
3  CC(C)(N)C(=O)N[C@H](COCc1ccccc1)C(=O)N1CCC2=NN(C3CC3)C(=O)[C@]2(Cc2ccccc2)C1          half-life    h      2.76
4  CC(C)(N)C(=O)N[C@H](COCc1ccccc1)C(=O)N1CCC2=NN(C3CC3)C(=O)[C@]2(Cc2ccccn2)C1          half-life    h      1.21

----------
assay: Metabolic stability in dog liver microsome assessed as half life at 1 uM measured upto 60 mins in presence of NADPH by LC-MS/MS analysis; type: ADME, Canis lupus familiaris; settings: liver microsomes
MEASURED_PROPERTY: half-life at 1 µM

> print(dat)
                                 cpd.smiles  measured.property  reported
1  CC(C)(N)C(=O)N[C@H](COCc1ccccc1)C(=O)N1CCC2=NN(C3CC3)C(=O)[C@]2(Cc2ccccc2)C1  half-life at 1 µM  10.3 min

----------
test: Volume of distribution in male monkey at 0.5 mg/kg, iv administered as single dose measured after 4 hrs; format: ADME, organism-based, Macaca mulatta; conditions: rhesus monkey, in vivo
MEASURED_PROPERTY: Vd (L/kg)

> print(dat)
                                 cpd.smiles  measured.property   uom  reported
1  CC(C)(N)C(=O)N[C@H](COCc1ccccc1)C(=O)N1CCC2=NN(C3CC3)C(=O)[C@]2(Cc2ccccc2)C1                 Vd  L/kg      2.36

----------
assay: Half life in male mouse at 2 mg/kg, po administered as single dose measured after 4 hrs; type: ADME, organism-based; details: in vivo
MEASURED_PROPERTY: half-life (min)

> print(dat)
                                 cpd.smiles  uom  reported
1  CC(C)(N)C(=O)N[C@H](COCc1ccccc1)C(=O)N1CCC2=NN(C3CC3)C(=O)[C@]2(Cc2ccccc2)C1  min      91.2
